Hello, the source for this data is patent US9376425B2, in case you need it.

- SYSTEM_NAME: human MDM2 (GST-hMDM2 aa 1-188), interaction with biotinylated-p53 (aa 1-83) (Homo sapiens, UniProt Q00987)
- Construct: Amino acid residues 1-188 of human MDM2 were expressed
- Sequence (Q00987 1-188): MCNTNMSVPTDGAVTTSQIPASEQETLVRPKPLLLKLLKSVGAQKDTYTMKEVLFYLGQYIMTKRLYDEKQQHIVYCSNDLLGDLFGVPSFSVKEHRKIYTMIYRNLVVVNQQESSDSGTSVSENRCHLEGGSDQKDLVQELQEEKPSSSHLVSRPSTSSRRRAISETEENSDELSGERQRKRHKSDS
- PROCEDURE_DETAILS: Homogenous Time-Resolved Fluorescence Assay (HTRF1 assay), inhibition of HDM2-p53 interaction
- RUN_PARAMETERS: 2.5 nM GST-hMDM2, 5 nM biotinylated-p53, 200 mM KF
ENDPOINT_NAME: IC50 (nM)

Solved entries:
• C[C@H](C1CCC1)N1C(=O)[C@H](CC(=O)O)O[C@H](c2cccc(Cl)c2)[C@H]1c1ccc(Cl)cc1 = 300
• CCC(CC)N1C(=O)[C@H](CC(=O)O)O[C@H](c2cccc(Cl)c2)[C@H]1c1ccc(Cl)cc1 = 100
• C[C@@H](c1ccccc1)N1C(=O)[C@@H](CC(=O)O)O[C@H](c2cccc(Cl)c2)[C@H]1c1ccc(Cl)cc1 = 1500
• O=C(O)C[C@@H]1O[C@H](c2cccc(Cl)c2)[C@@H](c2ccc(Cl)cc2)N(Cc2ncco2)C1=O = 1100

(1) O=C(O)CC1O[C@H](c2ccnc(Cl)c2)[C@@H](c2ccc(Cl)cc2)N(CC2CC2)C1=O (single isomer, unassigned)
(2) O=C(O)C[C@@H]1O[C@H](c2cccc(Cl)c2)[C@@H](c2ccc(Cl)cc2)NC1=O
(3) C[C@H](c1ccccc1)N1C(=O)[C@@H](CC(=O)O)O[C@H](c2cccc(Cl)c2)[C@H]1c1ccc(Cl)cc1
Order the entries by their reported IC50, beginning at the minimum. // rank by listing labels in the order requested
1, 3, 2
(1: 600 nM, 3: 1000 nM, 2: 25000 nM)

(P) O=C(O)CC1O[C@H](c2ccc(F)c(Cl)c2)[C@@H](c2ccc(Cl)cc2)N(CC2CC2)C1=O (single isomer, unassigned)
(Q) O=C(O)C[C@@H]1O[C@H](c2cccc(Cl)c2)[C@@H](c2ccc(Cl)cn2)N(CC2CC2)C1=O (single isomer, unassigned)
(R) CC[C@@H](C(=O)OC(C)(C)C)N1C(=O)[C@H](CC(=O)O)O[C@H](c2cccc(Cl)c2)[C@H]1c1ccc(Cl)cc1 (single isomer, unassigned)
(S) O=C(O)CC1O[C@H](c2cccc(Cl)c2)[C@@H](c2ccc(C(F)(F)F)nc2)N(CC2CC2)C1=O (single isomer, unassigned) [Example 82]
(T) CS(=O)(=O)c1cc(Cl)cc([C@H]2O[C@@H](CC(=O)O)C(=O)N(CC3CC3)[C@@H]2c2ccc(Cl)cc2)c1 (single isomer, unassigned)
Order the entries by their reported IC50, beginning at the minimum. // rank by listing labels in the order requested
R, P, Q, T, S
(R: 100 nM, P: 600 nM, Q: 1100 nM, T: 2300 nM, S: 30000 nM)

(1) CCCN1C(=O)[C@@H](CC(=O)O)O[C@H](c2cccc(Cl)c2)[C@H]1c1ccc(Cl)cc1
(2) N#Cc1cc(F)cc([C@H]2OC(CC(=O)O)C(=O)N(CC3CC3)[C@@H]2c2ccc(Cl)cc2)c1 (single isomer, unassigned) [Example 99]
(3) O=C(O)CC1O[C@H](c2cccc(Cl)c2)[C@@H](c2ccc(Cl)cc2Br)N(CC2CC2)C1=O (single isomer, unassigned) [Example 79]
(4) O=C(O)C[C@H]1O[C@H](c2cccc(Cl)c2)[C@@H](c2ccccc2)N(CC2CC2)C1=O
Order these by IC50, descending, and give the full ranking. // rank by listing labels in the order requested
3, 4, 2, 1

(P) O=C(O)C[C@@H]1O[C@H](c2cccc(Cl)c2)[C@@H](c2ccc(OC(F)(F)F)cc2)N(CC2CC2)C1=O
(Q) O=C(O)CC1O[C@H](c2cc(Cl)ccc2F)[C@@H](c2ccc(Cl)cc2)N(CC2CC2)C1=O (single isomer, unassigned) [Example 100]
Hi there! Just curious which has the higher IC50 between P and Q . Lab note: record the label of whichever item you select.
Q
